test.system: UniProtKB P28223
Sequence (P28223 whole entry): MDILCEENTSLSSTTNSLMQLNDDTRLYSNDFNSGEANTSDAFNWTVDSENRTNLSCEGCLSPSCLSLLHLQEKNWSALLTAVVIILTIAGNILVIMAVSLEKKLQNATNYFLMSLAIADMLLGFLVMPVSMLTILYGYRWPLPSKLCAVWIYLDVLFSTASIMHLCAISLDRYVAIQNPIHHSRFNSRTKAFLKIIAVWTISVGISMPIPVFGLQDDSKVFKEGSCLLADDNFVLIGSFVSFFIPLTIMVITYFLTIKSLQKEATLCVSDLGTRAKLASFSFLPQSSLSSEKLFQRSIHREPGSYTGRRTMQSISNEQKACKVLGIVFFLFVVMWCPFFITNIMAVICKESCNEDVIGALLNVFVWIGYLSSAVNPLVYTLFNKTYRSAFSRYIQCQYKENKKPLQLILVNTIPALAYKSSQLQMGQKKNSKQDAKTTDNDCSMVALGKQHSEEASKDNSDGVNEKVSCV
Could you please mark met for values of Ki below 0.06 µM and not met for values at or above it?

Qu. Given the entry O=C1c2ccc(F)cc2CC1CCN1CCCN(c2ccc(Cl)cn2)CC1 (stereo unspecified) , would its reported Ki be below 0.06 µM?
Ans. met

Qu. Determine whether this compound shows Ki lower than 0.06 µM (ties excluded): O=C(CCCN1CCCN(c2ccccn2)CC1)c1ccc(F)cc1
Ans. met

Qu. Would you kindly verify if Ki of Fc1ccc(CCCCN2CCN(c3cccc(-c4ccccc4)n3)CC2)cc1 is strictly less than 0.06 µM?
Ans. not met

Qu. Criterion: Ki strictly below 0.06 µM. Is it met by Fc1ccc2c(c1)CC(CCN1CCCN(c3ccccn3)CC1)C2 (stereo unspecified) ?
Ans. met

Qu. Consider Fc1ccc(CCCCN2CCN(c3ccc(-c4ccccc4)cn3)CC2)cc1 . Does its Ki lie strictly below 0.06 µM?
Ans. not met

Qu. Does the reported Ki of the following compound sit strictly below 0.06 µM? O=C(CCCN1CCN(c2cccnc2)CC1)c1ccc(F)cc1
Ans. not met

Qu. Given O=C(CCCN1CCCN(c2ccc(Cl)cn2)CC1)c1ccc(F)cc1 , is recorded Ki strictly lower than 0.06 µM?
Ans. met

Qu. Strictly below 0.06 µM: is that where Ki of Fc1ccc(CCCCN2CCN(c3cccnc3)CC2)cc1 sits?
Ans. not met

Qu. hey, is Ki for O=C(CCCN1C2CCC1CN(c1ccc(Cl)cn1)C2)c1ccc(F)cc1 lower than 0.06 µM or not?
Ans. met

Qu. I wonder whether Fc1ccc(CCCCN2C3CCC2CN(c2ccc(Cl)cn2)C3)cc1 has Ki below 0.06 µM. Can you tell?
Ans. not met
